Taken from PubChem BioAssay (NCATS).

tested on: CP238; assay: qHTS profiling for inhibitors of Plasmodium falciparum proliferation (AID 504749); further: nearly all actives have a fitted effect of over 60% in size; further: potency means the concentration at half of the fitted maximal effect; details: P. falciparum in erythrocytes, SYBR Green DNA, 72 h; series mostly up to 28.7 µM
Inconclusive results are not listed. The source made the active and inactive calls. The call rests on the fitted dose curve; in most records, active means well fitted inhibition curve with a large enough effect; inconclusive means small, poorly fitted or top-dose-only effect; inactive means flat fitted curve, though single readings scatter.
readout.name: Potency

Worked examples, 10 compounds total:
| compound | Potency |
| --- | --- |
| CC(C)COCC(CN(Cc1ccccc1)c1ccccc1)N1CCCC1 (stereo not drawn) | inactive |
| CNC1(C)C2CCC(C2)C1(C)C (stereo not drawn) | inactive |
| Nc1ncn([C@@H]2O[C@H](CO)[C@@H](O)[C@H]2O)c(=O)n1 | inactive |
| O=C1CC2(CCCC2)CC(=O)N1CCCCN1CCN(c2ncccn2)CC1 | inactive |
| CN1CCN(CC(=O)N2c3ccccc3C(=O)Nc3cccnc32)CC1 | inactive |
| CCN1CCc2nc(N)oc2CC1 | inactive |
| COCC(=O)O[C@]1(CCN(C)CCCc2nc3ccccc3[nH]2)CCc2cc(F)ccc2[C@@H]1C(C)C | 4.47 µM (active) |
| CCCCNc1ccc(C(=O)OCCN(C)C)cc1 | inactive |
| OCCN1CCN(CCCN2c3ccccc3C=Cc3ccccc32)CC1 | 11.2 µM (active) |
| CCN1CCC[C@H]1CNC(=O)c1c(O)c(Cl)cc(Cl)c1OC | inactive |

Provide Potency for all items below, preserving their order.
1. CCOC(=O)C1=C(C)NC(C)=C(C(=O)OC)C1c1cccc([N+](=O)[O-])c1 (stereo not drawn)
2. Cc1ccc(S(=O)(=O)NC(=O)NN2CCCCCC2)cc1
3. C#CCN(C)CCCOc1ccc(Cl)cc1Cl

Data returned:
10 µM (active)
inactive
inactive
